# tgt: HCoV-229E Mpro (Human coronavirus 229E, UniProt P0C6X1)
# Sequence (P0C6X1 2966-3267 limits assumed): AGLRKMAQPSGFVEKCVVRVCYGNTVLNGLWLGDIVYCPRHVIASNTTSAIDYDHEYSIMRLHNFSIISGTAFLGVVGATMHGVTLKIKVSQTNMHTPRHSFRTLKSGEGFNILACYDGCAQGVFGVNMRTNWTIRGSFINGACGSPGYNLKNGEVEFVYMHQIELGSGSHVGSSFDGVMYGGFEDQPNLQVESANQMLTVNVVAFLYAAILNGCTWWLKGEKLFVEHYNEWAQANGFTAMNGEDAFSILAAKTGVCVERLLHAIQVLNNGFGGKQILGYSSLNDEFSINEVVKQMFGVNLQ
# test.method.notes: HCoV-229E Mpro enzymatic inhibition assay (fluorescence)
# Type: biochemical
result.type: log10(IC50) (log10 of the value in nM)
In plain terms, each number is the log10 of measured IC50 in nM.

[
  {
    "molecule": "COc1cccc2cc(C(=O)N3C[C@H]4[C@@H]([C@H]3C(=O)N[C@H](C=O)C[C@@H]3CCNC3=O)C4(C)C)[nH]c12",
    "tgt": "HCoV-229E Mpro (Human coronavirus 229E, UniProt P0C6X1)",
    "log10(IC50)": 1.97
  },
  {
    "molecule": "COc1ccc(Cl)c2[nH]c(C(=O)N3C[C@H]4[C@@H]([C@H]3C(=O)N[C@H](C=O)C[C@@H]3CCNC3=O)C4(C)C)cc12",
    "tgt": "HCoV-229E Mpro (Human coronavirus 229E, UniProt P0C6X1)",
    "log10(IC50)": 1.55
  },
  {
    "molecule": "N#Cc1cccc2[nH]c(C(=O)N3CC4(CC4)C[C@H]3C(=O)N[C@H](C=O)C[C@@H]3CCNC3=O)cc12",
    "tgt": "HCoV-229E Mpro (Human coronavirus 229E, UniProt P0C6X1)",
    "log10(IC50)": 1.43
  },
  {
    "molecule": "Cc1cc(Cl)cc2cc(C(=O)N3C[C@H]4[C@@H]([C@H]3C(=O)N[C@H](C=O)C[C@@H]3CCNC3=O)C4(C)C)[nH]c12",
    "tgt": "HCoV-229E Mpro (Human coronavirus 229E, UniProt P0C6X1)",
    "log10(IC50)": 1.70
  },
  {
    "molecule": "O=C[C@H](C[C@@H]1CCNC1=O)NC(=O)[C@@H]1C[C@@H](Cc2ccccc2Cl)CN1C(=O)c1cc2ccccc2[nH]1",
    "tgt": "HCoV-229E Mpro (Human coronavirus 229E, UniProt P0C6X1)",
    "log10(IC50)": 2.57
  }
]

Switching to the query record.
For CC1(C)[C@@H]2[C@@H](C(=O)N[C@H](C=O)C[C@@H]3CCNC3=O)N(C(=O)CC3CCCC(F)(F)C3)C[C@@H]21 (stereo partly drawn) the molecule record lists log10(IC50) as 1.39
